Molecular target: T1, rabbit serum albumin (rabbit), P49065
T1 chain: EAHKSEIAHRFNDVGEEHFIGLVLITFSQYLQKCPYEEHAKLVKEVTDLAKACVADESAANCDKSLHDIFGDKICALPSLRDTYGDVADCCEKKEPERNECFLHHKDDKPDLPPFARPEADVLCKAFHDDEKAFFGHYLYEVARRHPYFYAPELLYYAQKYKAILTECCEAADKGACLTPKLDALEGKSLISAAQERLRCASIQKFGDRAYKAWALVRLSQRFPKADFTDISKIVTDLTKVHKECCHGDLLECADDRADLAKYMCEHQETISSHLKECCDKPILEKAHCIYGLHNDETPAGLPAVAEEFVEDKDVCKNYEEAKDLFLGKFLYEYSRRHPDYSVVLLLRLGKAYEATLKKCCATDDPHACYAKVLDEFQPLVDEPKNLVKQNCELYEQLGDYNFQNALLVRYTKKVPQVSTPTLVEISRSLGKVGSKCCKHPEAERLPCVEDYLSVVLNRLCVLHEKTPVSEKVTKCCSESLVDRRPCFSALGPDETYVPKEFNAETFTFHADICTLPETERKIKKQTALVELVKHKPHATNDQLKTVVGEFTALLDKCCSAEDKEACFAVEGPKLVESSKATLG
Test: peptide competition for albumin
pIC50: −log10 of the molar value.
Value type: pIC50

>>> readout_number("RLMEDICLARWGCLWEDD (modifications not checked) [SA13]")
5.49
